measurement_description: Acute toxicity in mice after intragastric administration
Type: in vivo
details: both sexes, mouse, in vivo, po; Mice CD-1, intragastric administration; read-out: LD50 (95% confidence interval)
measured_parameter: LD50 (mg/kg)
Give just the numeric value; mg/kg need not be written.

Quickly give me recorded LD50 for CCCCCCCCCCCC[N+](C)(C)Cc1cnc(C[N+](C)(C)CCCCCCCCCCCC)c2c1COC(CC)O2 (stereo not shown)
1710
